Molecular target: Mtb CoaBC (Mycobacterium tuberculosis, UniProt P9WNZ1)
Sequence (P9WNZ1 whole entry): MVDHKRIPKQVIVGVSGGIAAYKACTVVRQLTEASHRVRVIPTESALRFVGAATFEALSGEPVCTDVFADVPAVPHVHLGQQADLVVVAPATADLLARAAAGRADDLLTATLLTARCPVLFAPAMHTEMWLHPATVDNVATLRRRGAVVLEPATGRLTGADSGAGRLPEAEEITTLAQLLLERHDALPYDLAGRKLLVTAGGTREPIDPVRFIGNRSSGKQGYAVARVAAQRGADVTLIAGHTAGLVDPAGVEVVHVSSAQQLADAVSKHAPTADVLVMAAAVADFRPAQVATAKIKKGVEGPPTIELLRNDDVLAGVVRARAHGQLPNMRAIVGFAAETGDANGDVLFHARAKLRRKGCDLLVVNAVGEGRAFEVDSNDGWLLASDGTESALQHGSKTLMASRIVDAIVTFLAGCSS
attribute measured: IC50 (µM)
Return type: number; implicit unit µM.

What does the record list as IC50 for Cc1nn(-c2ccccc2)c(O)c1Sc1nc2cc(Cl)ccc2o1 ?
24.3

----------
Biological target: Mtb CoaBC (Mycobacterium tuberculosis, UniProt P9WNZ1)
Assay: biochemical
attribute measured: Ki (µM)
Provide only the numeric value, understood in µM.

Please give the measured Ki for this compound: Cc1nn(-c2ccccc2)c(O)c1Sc1nc2cc(Cl)ccc2o1 [Compound 1f]
10.1
